assay: Oral bioavailability in Beagle dog at 8 mg/kg; assay type: ADME, organism-based, Canis lupus familiaris; conditions: in vivo
measure: bioavailability (%)
Please state the figure in %; there is no need to write the unit.

Ask: Please give measured bioavailability of the following entry: Cc1cc(COc2ccc(C(=O)N[C@@H]3CCOC[C@@H]3C(=O)NO)cc2)c2ccccc2n1
Result: 96

----------
assay: AUC in Beagle dog at 2 mg/kg, iv; assay type: ADME, organism-based, Canis lupus familiaris; parameters: dose 2 mg/kg, route intravenous; conditions: plasma
measure: AUC

Ask: Please give measured AUC of the following entry: Cc1cc(COc2ccc(C(=O)N[C@@H]3CCOC[C@@H]3C(=O)NO)cc2)c2ccccc2n1
Result: 2.7 µM·h

----------
assay: Half life in Sprague-Dawley rat at 2 mg/kg, iv; assay type: ADME, organism-based; set-up: dose 2 mg/kg, route intravenous; conditions: in vivo
measure: half-life (min)
Please state the figure in min; there is no need to write the unit.

Ask: Please give measured half-life of the following entry: Cc1cc(COc2ccc(C(=O)N[C@@H]3CCOC[C@@H]3C(=O)NO)cc2)c2ccccc2n1
Result: 84

----------
assay: Oral bioavailability in Sprague-Dawley rat at 40 mg/kg; type: ADME, organism-based; settings: in vivo
measure: bioavailability (%)
Please state the figure in %; there is no need to write the unit.

Ask: Please give measured bioavailability of the following entry: Cc1cc(COc2ccc(C(=O)N[C@@H]3CCOC[C@@H]3C(=O)NO)cc2)c2ccccc2n1
Result: 58

----------
Exercise: for every item that follows, state its recorded pIC50.
Note: pIC50 values are expressed as the negative base-10 logarithm of concentration in M.

Ask: For Disintegrin and metalloproteinase domain-containing protein 17 (Sus scrofa), give the measured pIC50 of the entry Cc1cc(COc2ccc(C(=O)N[C@@H]3CN(C(C)(C)C)CC[C@@H]3C(=O)NO)cc2)c2ccccc2n1
Result: 8.70

Ask: For Disintegrin and metalloproteinase domain-containing protein 17 (Sus scrofa), give the measured pIC50 of the entry Cc1cc(COc2ccc(C(=O)N[C@@H]3CCCC[C@H]3C(=O)NO)cc2)c2ccccc2n1
Result: 8.70

Ask: For Disintegrin and metalloproteinase domain-containing protein 17 (Sus scrofa), give the measured pIC50 of the entry Cc1cc(COc2ccc(C(=O)NC3CCC3C(=O)NO)cc2)c2ccccc2n1 (stereo unspecified)
Result: 9.00

Ask: For Disintegrin and metalloproteinase domain-containing protein 17 (Sus scrofa), give the measured pIC50 of the entry Cc1cc(COc2ccc(C(=O)N[C@@H]3CCCO[C@@H]3C(=O)NO)cc2)c2ccccc2n1
Result: 8.52

Ask: For Disintegrin and metalloproteinase domain-containing protein 17 (Sus scrofa), give the measured pIC50 of the entry Cc1cc(COc2ccc(C(=O)N[C@@H]3CNCC[C@@H]3C(=O)NO)cc2)c2ccccc2n1
Result: 9.00

Ask: For Disintegrin and metalloproteinase domain-containing protein 17 (Sus scrofa), give the measured pIC50 of the entry Cc1cc(COc2ccc(C(=O)N[C@@H]3CCNC[C@@H]3C(=O)NO)cc2)c2ccccc2n1
Result: 7.62

Ask: For Disintegrin and metalloproteinase domain-containing protein 17 (Sus scrofa), give the measured pIC50 of the entry Cc1cc(COc2ccc(C(=O)N[C@@H]3CCCC[C@@H]3C(=O)NO)cc2)c2ccccc2n1
Result: 8.70

Ask: For Disintegrin and metalloproteinase domain-containing protein 17 (Sus scrofa), give the measured pIC50 of the entry Cc1cc(COc2ccc(C(=O)N[C@@H]3CN(CCN(C)C)CC[C@@H]3C(=O)NO)cc2)c2ccccc2n1
Result: 8.70

----------
experiment: AUC in Sprague-Dawley rat at 40 mg/kg, po; assay type: ADME, organism-based; parameters: dose 40 mg/kg, route oral; conditions: plasma
measure: AUC (µM·h)
Please state the figure in µM·h; there is no need to write the unit.

Ask: Please give measured AUC of the following entry: Cc1cc(COc2ccc(C(=O)N[C@@H]3CCOC[C@@H]3C(=O)NO)cc2)c2ccccc2n1
Result: 65

----------
test: Fraction unbound in dog serum; format: ADME, cell-free, Canis lupus familiaris
measure: fraction unbound
# answer = number (no unit)

Ask: Please give measured fraction unbound of the following entry: Cc1cc(COc2ccc(C(=O)N[C@@H]3CCOC[C@@H]3C(=O)NO)cc2)c2ccccc2n1
Result: 0.17

----------
test: Tmax in Beagle dog at 8 mg/kg, po; assay type: ADME, organism-based, Canis lupus familiaris; design: dose 8 mg/kg, route oral; settings: in vivo
measure: Tmax (min)
Please state the figure in min; there is no need to write the unit.

Ask: Please give measured Tmax of the following entry: Cc1cc(COc2ccc(C(=O)N[C@@H]3CCOC[C@@H]3C(=O)NO)cc2)c2ccccc2n1
Result: 12

----------
test system: Blood; experiment: Inhibition of LPS-stimulated TNFalpha release in human whole blood; type: functional, tissue-based
Exercise: for every item that follows, state its recorded IC50.
Please state the figure in nM; there is no need to write the unit.

Ask: Please give measured IC50 of the following entry: Cc1cc(COc2ccc(C(=O)N[C@H]3CNCC[C@@H]3C(=O)NO)cc2)c2ccccc2n1
Result: 393

Ask: Please give measured IC50 of the following entry: Cc1cc(COc2ccc(C(=O)N[C@@H]3CCCC[C@@H]3C(=O)NO)cc2)c2ccccc2n1
Result: 890

Ask: Please give measured IC50 of the following entry: Cc1cc(COc2ccc(C(=O)N[C@@H]3COCC[C@@H]3C(=O)NO)cc2)c2ccccc2n1
Result: 290

Ask: Please give measured IC50 of the following entry: Cc1cc(COc2ccc(C(=O)N[C@@H]3CCCO[C@@H]3C(=O)NO)cc2)c2ccccc2n1
Result: 4110

Ask: Please give measured IC50 of the following entry: Cc1cc(COc2ccc(C(=O)N[C@@H]3CCOC[C@@H]3C(=O)NO)cc2)c2ccccc2n1
Result: 130

Ask: Please give measured IC50 of the following entry: Cc1cc(COc2ccc(C(=O)N[C@@H]3CN(C(C)(C)C)CC[C@@H]3C(=O)NO)cc2)c2ccccc2n1
Result: 44

Ask: Please give measured IC50 of the following entry: Cc1cc(COc2ccc(C(=O)N[C@@H]3CN(CCN(C)C)CC[C@@H]3C(=O)NO)cc2)c2ccccc2n1
Result: 55

Ask: Please give measured IC50 of the following entry: Cc1cc(COc2ccc(C(=O)NC3CCC3C(=O)NO)cc2)c2ccccc2n1 (centres undefined)
Result: 2860

----------
target: Disintegrin and metalloproteinase domain-containing protein 17 (Sus scrofa)
Sequence (O77636 whole entry, the tested form may be a part): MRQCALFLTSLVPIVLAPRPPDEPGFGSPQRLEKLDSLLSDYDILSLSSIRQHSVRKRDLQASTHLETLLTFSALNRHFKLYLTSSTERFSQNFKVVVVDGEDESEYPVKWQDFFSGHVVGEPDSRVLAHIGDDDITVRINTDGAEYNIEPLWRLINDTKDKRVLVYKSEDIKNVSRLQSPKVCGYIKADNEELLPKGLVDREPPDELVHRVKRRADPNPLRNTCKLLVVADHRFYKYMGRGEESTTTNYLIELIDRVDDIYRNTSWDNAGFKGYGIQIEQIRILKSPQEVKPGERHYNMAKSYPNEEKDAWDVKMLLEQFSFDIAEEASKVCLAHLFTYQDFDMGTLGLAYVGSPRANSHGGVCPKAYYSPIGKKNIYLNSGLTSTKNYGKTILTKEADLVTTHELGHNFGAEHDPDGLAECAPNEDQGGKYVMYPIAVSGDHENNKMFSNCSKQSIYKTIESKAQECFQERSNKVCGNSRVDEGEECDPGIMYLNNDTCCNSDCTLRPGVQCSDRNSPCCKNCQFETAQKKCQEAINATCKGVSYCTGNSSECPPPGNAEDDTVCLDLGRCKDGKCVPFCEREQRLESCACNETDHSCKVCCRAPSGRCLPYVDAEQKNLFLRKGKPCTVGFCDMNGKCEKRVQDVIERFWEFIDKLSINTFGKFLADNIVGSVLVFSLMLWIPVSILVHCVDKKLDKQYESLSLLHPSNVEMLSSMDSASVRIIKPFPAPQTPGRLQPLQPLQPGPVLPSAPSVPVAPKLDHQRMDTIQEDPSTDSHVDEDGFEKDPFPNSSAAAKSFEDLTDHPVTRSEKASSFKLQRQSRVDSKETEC
pIC50: −log10 of the molar value.
measure: pIC50

Ask: For Disintegrin and metalloproteinase domain-containing protein 17 (Sus scrofa), give the measured pIC50 of the entry Cc1cc(COc2ccc(C(=O)N[C@@H]3CCOC[C@@H]3C(=O)NO)cc2)c2ccccc2n1
Result: > 9.00

Ask: For Disintegrin and metalloproteinase domain-containing protein 17 (Sus scrofa), give the measured pIC50 of the entry Cc1cc(COc2ccc(C(=O)N[C@H]3CNCC[C@@H]3C(=O)NO)cc2)c2ccccc2n1
Result: > 9.00

Ask: For Disintegrin and metalloproteinase domain-containing protein 17 (Sus scrofa), give the measured pIC50 of the entry Cc1cc(COc2ccc(C(=O)N[C@@H]3COCC[C@@H]3C(=O)NO)cc2)c2ccccc2n1
Result: > 9.00

Provenance of the data: ChEMBL document CHEMBL1140787
